The following compounds are listed with their measured TGI values.
- Tested on: BT-549 breast
- Protocol: NCI tumour cell line growth inhibition, 48 h

Reference set (5 entries):
O=c1c2ncn(C3CC(O)C(CO)O3)c2nnn1Cc1ccccc1[N+](=O)[O-] (stereo unspecified)
> 100 µM
COc1ccc(N2C(=O)c3c4c(c5c([nH]c6ncccc65)c3C2=O)CCC(C(C)(C)C)C4)cc1 (stereo unspecified)
> 100 µM
O=C1/C(=C/c2ccccc2S)N=C(c2ccccc2)N1c1nc2ccc(Sc3ccccc3)cc2[nH]1
61.1 µM
ClCCn1c(CCl)nc2ccc(Cl)cc21
0.753 µM
C=C(Cl)/C(=C\Cl)CCC(Br)C(C)C (stereo unspecified)
> 100 µM

For the compound COc1ccc(-c2ccc(/C=N/n3c(COc4ccc(Cl)cc4Cl)n[nH]c3=S)o2)c([N+](=O)[O-])c1 , what TGI is on record?
50.2 µM

Okay, and CC(=O)N/N=C1/NN(C(C)=O)C2(S1)C(=O)Nc1ccc(Br)cc12 (stereo unspecified) ?
> 100 µM

Then what about the compound C=CCc1c2c(c(OC)c3ccoc13)C(=O)/C(=C/c1ccccc1OC)O2 ?
> 100 µM

Same again, this time with C/C(N=Nc1nc2ccccc2s1)=C1/C=CC=CN1O
> 100 µM

Ok, now COc1cccc(-c2cc(=O)c3c(C)cc(C)nc3[nH]2)c1
> 100 µM

How about COC(=O)[C@]12CC[C@@H](C)[C@H](C)[C@@H]1C1=CC[C@@H]3[C@@]4(C)C[C@@H](OC(C)=O)[C@H](O)[C@@](C)(COC(C)=O)[C@@H]4[C@H](O)C[C@@]3(C)[C@]1(C)CC2 ?
5.71 µM

Okay, and CCN(Cc1ccc(F)c(F)c1)c1ccc(CO)c(Cl)c1 ?
25 µM

Also check O=C(c1ccc(F)cc1)c1cccc(C(=O)c2ccc(F)cc2)n1
18.5 µM

Quick one: COC(=O)/C=C/C=C(c1ccccc1)c1ccccc1
19.6 µM

What would you report for Nc1nn2c(C(Br)Br)cc(C(Br)Br)nc2c1[N+](=O)[O-] ?
2.09 µM

Would you kindly repeat that for C[C@H](Nc1ncnc2nc[nH]c12)c1cc2cccc(Cl)c2c(=O)n1-c1ccccc1 ?
> 83.1 µM

---

- Test system: OVCAR-3 ovarian
- Protocol: NCI tumour cell line growth inhibition, 48 h
TGI values for the compounds below.

O=C1CCC(=Nc2ccc(Cl)cc2)N1C(=O)COc1ccc(OCC(=O)N2C(=O)CSC2=Nc2ccc(Cl)cc2)cc1
> 100 µM

Please give the measured TGI for this compound: COc1ccccc1NC(=O)C1=C(C)NC(C)=C(C(=O)Nc2ccccc2OC)C1c1ccccc1F
> 100 µM

Thanks! And CCCCCn1c(=N)n(CC(O)COc2cccc(C)c2)c2ccccc21 (stereo not given) ?
21.2 µM

# iterate: CC/C=C\C=C/C(=O)N/C=C/CC1Cc2cccc(O)c2C(=O)O1 (stereo not given)
39.7 µM

Another compound to check: O=C(O)C1CC(c2ccc(F)cc2)=Nc2ccc(F)cc2S1 (stereo not given)
> 100 µM

How about this compound: COC1(C(=O)N[C@@H](C)c2ccc(-n3cc(F)cn3)nc2)CCC(c2nc(C)cc(Nc3cc(C)[nH]n3)n2)CC1 (stereo not given in full)
20.6 µM

Now consider COCCN1C2=CCCCC2=Nc2c1nc(N)[nH]c2=O and answer again.
> 100 µM

Next compound: COC(=O)c1c(C)cccc1/C=C1/Cc2c(C)cccc2C1=O
> 100 µM

Do the same for c1cc(-c2cn3ccsc3n2)ccn1 please
> 100 µM

Note, next up: CN(C)c1ccc(-c2c(C#N)c(S)n(NS(=O)(=O)c3ccccc3)c(=O)c2C#N)cc1
> 100 µM

// repeat for Cc1cc(-c2nc3c(O)cccc3s2)ccc1N and report
> 100 µM

And then NC(=S)N/N=C(/CC(=O)c1ccccc1)C(=O)Nc1ccc(Cl)c(Cl)c1 , what is it?
> 100 µM
